# Tested on: MDA-MB-231
# test-name: Antiproliferative activity against human MDA-MB-231 cells assessed as inhibition of cell proliferation after 72 hrs by MTS assay
# Type: functional, cell-based
# condition-info: MDA-MB-231, 72 h
reported-endpoint: IC50 (µM)
Please respond with the number in µM and leave the unit unwritten.

query: Find the recorded IC50 belonging to CN[C@@H](C)C(=O)N[C@H](C(=O)N1C[C@@H]2C[C@H]1C(=O)N[C@@H](Cc1ccccc1)C(=O)N[C@H](C(=O)O)Cc1ccc(cc1)NC(=O)CCc1cn(nn1)[C@H]1C[C@@H](C(=O)N[C@@H](Cc3ccccc3)C(=O)N[C@H](C(=O)O)Cc3ccc(cc3)NC(=O)CCc3cn2nn3)N(C(=O)[C@@H](NC(=O)[C@H](C)NC)C(C)C)C1)C(C)C and report it.
result: 7.9

* * *

# Tested on: MDA-MB-231
# test-name: Antiproliferative activity against human MDA-MB-231 cells assessed as inhibition of cell proliferation after 72 hrs by MTS assay
# Type: functional, cell-based
# condition-info: MDA-MB-231, 72 h
Quick reference: pIC50 of the listed items.
Formally, pIC50 is defined as -log10 of the concentration c, with c in mol/L.

# annotated cases, reported pIC50 shown
* CN[C@@H](C)C(=O)N[C@H](C(=O)N1C[C@@H]2C[C@H]1C(=O)N[C@@H](Cc1ccc3ccccc3c1)C(=O)N[C@H](C(=O)O)Cc1ccc(cc1)OCc1cn(nn1)[C@H]1C[C@@H](C(=O)N[C@@H](Cc3ccc4ccccc4c3)C(=O)N[C@H](C(=O)O)Cc3ccc(cc3)OCc3cn2nn3)N(C(=O)[C@@H](NC(=O)[C@H](C)NC)C(C)(C)C)C1)C(C)(C)C | 7.59
* CN[C@@H](C)C(=O)N[C@H](C(=O)N1C[C@@H]2C[C@H]1C(=O)N[C@@H](Cc1ccc3ccccc3c1)C(=O)N[C@H](C(=O)O)Cc1cn(nn1)[C@H]1C[C@@H](C(=O)N[C@@H](Cc3ccc4ccccc4c3)C(=O)N[C@H](C(=O)O)Cc3cn2nn3)N(C(=O)[C@@H](NC(=O)[C@H](C)NC)C(C)C)C1)C(C)C | 5.70
* CN[C@@H](C)C(=O)N[C@H](C(=O)N1C[C@@H]2C[C@H]1C(=O)N[C@@H](Cc1ccc3ccccc3c1)C(=O)N[C@H](C(=O)O)Cc1ccc(cc1)OCc1cn(nn1)[C@H]1C[C@@H](C(=O)N[C@@H](Cc3ccc4ccccc4c3)C(=O)N[C@H](C(=O)O)Cc3ccc(cc3)OCc3cn2nn3)N(C(=O)[C@@H](NC(=O)[C@H](C)NC)C(C)C)C1)C(C)C | 7.09

Now look at this entry.
query: Would you kindly share the measured pIC50 for CN[C@@H](C)C(=O)N[C@H](C(=O)N1C[C@@H]2C[C@H]1C(=O)N[C@@H](Cc1ccc3ccccc3c1)C(=O)N[C@H](C(=O)O)Cc1ccc(cc1)OCc1cn(nn1)[C@H]1C[C@@H](C(=O)N[C@@H](Cc3ccc4ccccc4c3)C(=O)N[C@H](C(=O)O)Cc3ccc(cc3)OCc3cn2nn3)N(C(=O)[C@@H](NC(=O)[C@H](C)NC)C2CCCCC2)C1)C1CCCCC1 ?
result: 7.85

* * *

# test-name: Volume of distribution at steady state in Balb/C mouse at 0.2 mg/kg, iv administered as single dose by LC-MS/MS method
# Assay type: ADME, organism-based
# Design: dose 0.2 mg/kg, route intravenous
# condition-info: in vivo, read-out: Vdss
reported-endpoint: Vd

query: Vd for CN[C@@H](C)C(=O)N[C@H](C(=O)N1C[C@@H]2C[C@H]1C(=O)N[C@@H](Cc1ccc3ccccc3c1)C(=O)N[C@H](C(=O)O)Cc1ccc(cc1)OCc1cn(nn1)[C@H]1C[C@@H](C(=O)N[C@@H](Cc3ccc4ccccc4c3)C(=O)N[C@H](C(=O)O)Cc3ccc(cc3)OCc3cn2nn3)N(C(=O)[C@@H](NC(=O)[C@H](C)NC)C2CCCCC2)C1)C1CCCCC1 ?
result: 0.7 L/kg

* * *

# test-name: Half life in Balb/C mouse at 0.2 mg/kg, iv administered as single dose by LC-MS/MS method
# Type: ADME, organism-based
# Design: dose 0.2 mg/kg, route intravenous
# condition-info: in vivo
reported-endpoint: half-life

query: Which measured half-life value corresponds to CN[C@@H](C)C(=O)N[C@H](C(=O)N1C[C@@H]2C[C@H]1C(=O)N[C@@H](Cc1ccc3ccccc3c1)C(=O)N[C@H](C(=O)O)Cc1ccc(cc1)OCc1cn(nn1)[C@H]1C[C@@H](C(=O)N[C@@H](Cc3ccc4ccccc4c3)C(=O)N[C@H](C(=O)O)Cc3ccc(cc3)OCc3cn2nn3)N(C(=O)[C@@H](NC(=O)[C@H](C)NC)C2CCCCC2)C1)C1CCCCC1 ?
result: 1.9 h

* * *

# System: Mus musculus
# test-name: AUClast in Balb/C mouse at 1 mg/kg, iv administered as single dose by LC-MS/MS method
# Type: ADME, organism-based, Plasma
# Design: time 0 - last, dose 1 mg/kg, route intravenous
# condition-info: in vivo
reported-endpoint: AUClast (ng·h/mL)
Lab book: enter the figure in ng·h/mL, no units written.

* CN[C@@H](C)C(=O)N[C@H](C(=O)N1C[C@@H]2C[C@H]1C(=O)N[C@@H](Cc1ccc3ccccc3c1)C(=O)N[C@H](C(=O)O)Cc1cn(nn1)[C@H]1C[C@@H](C(=O)N[C@@H](Cc3ccc4ccccc4c3)C(=O)N[C@H](C(=O)O)Cc3cn2nn3)N(C(=O)[C@@H](NC(=O)[C@H](C)NC)C(C)C)C1)C(C)C | 1070

// next item, AUClast requested
query: Identify the measured AUClast of CN[C@@H](C)C(=O)N[C@H](C(=O)N1C[C@@H]2C[C@H]1C(=O)N[C@@H](Cc1ccc3ccccc3c1)C(=O)N[C@H](C(=O)O)Cc1ccc(cc1)OCc1cn(nn1)[C@H]1C[C@@H](C(=O)N[C@@H](Cc3ccc4ccccc4c3)C(=O)N[C@H](C(=O)O)Cc3ccc(cc3)OCc3cn2nn3)N(C(=O)[C@@H](NC(=O)[C@H](C)NC)C(C)(C)C)C1)C(C)(C)C for Mus musculus.
result: 1550

* * *

# key: entry, value: IC50
# study-target: E3 ubiquitin-protein ligase XIAP (Homo sapiens, UniProt P98170)
# Sequence (P98170 whole entry, looked up, the tested form may be a part): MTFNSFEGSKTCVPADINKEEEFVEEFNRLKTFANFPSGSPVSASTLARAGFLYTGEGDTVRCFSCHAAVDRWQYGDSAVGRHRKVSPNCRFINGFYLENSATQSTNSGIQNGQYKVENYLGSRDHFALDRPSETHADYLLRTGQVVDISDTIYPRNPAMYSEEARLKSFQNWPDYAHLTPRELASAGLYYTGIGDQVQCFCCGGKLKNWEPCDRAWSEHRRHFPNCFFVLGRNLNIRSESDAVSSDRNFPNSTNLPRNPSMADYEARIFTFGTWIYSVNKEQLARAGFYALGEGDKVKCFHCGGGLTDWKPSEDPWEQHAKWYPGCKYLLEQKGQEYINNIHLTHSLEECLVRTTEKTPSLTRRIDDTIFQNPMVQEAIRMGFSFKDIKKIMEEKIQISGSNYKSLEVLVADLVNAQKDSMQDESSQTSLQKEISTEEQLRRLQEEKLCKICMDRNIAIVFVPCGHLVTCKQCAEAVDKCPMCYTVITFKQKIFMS
# test-name: Inhibition of XIAP BIR3 (241 to 356 residues) (unknown origin) incubated for 60 mins by fluoresceinated modified SMAC peptide based fluorescence polarization assay
Numbered stars: 1 amine (or outer) side, 2 acyl side, 3 side chain; on linkers, the order of the positions; unused ones are H or OH. Bridge positions count the residues as written; N and C are the ends. Square brackets hold non-standard residues; d marks the D form. Peptide text beside a SMILES is read from it. X1 = O=C(O)CN(CCN[*:1])CCn1cc(CCC(=O)[*:2])nn1; NMeA = CN[C@@H](C)C(=O)O
A complete answer gives the number followed by the unit.

Record excerpt, results attached:
* CN[C@@H](C)C(=O)N[C@H](C(=O)N1C[C@@H]2C[C@H]1C(=O)N[C@@H](Cc1ccccc1)C(=O)N[C@@H](C(=O)O)Cc1ccc(cc1)NC(=O)CCc1cn2nn1)C(C)C | 232 nM
* CN[C@@H](C)C(=O)N[C@H]1CCCCNC(=O)CCc2cn(nn2)CCOc2ccc(cc2)C[C@@H](C(=O)O)NC(=O)[C@H](Cc2ccccc2)NC(=O)[C@@H]2CCCN2C1=O | 1490 nM

Moving on to the next compound.
query: Fill blank: measured IC50 of the compound CN[C@@H](C)C(=O)N[C@H]1CCCCNC(=O)CCc2cn(nn2)CCN(CC(=O)O)CCNC(=O)[C@H](Cc2ccccc2)NC(=O)[C@@H]2CCCN2C1=O (H-[NMeA]KPF[X1]; lactam 2-C) is ____.
result: 900 nM

* * *

Entries and their pEC50 values follow.
# study-target: BIR2 domain of XIAP (Homo sapiens, UniProt P98170, C202A/C213G)
# Sequence (P98170 whole entry C202A/C213G, looked up, the tested form may be a part): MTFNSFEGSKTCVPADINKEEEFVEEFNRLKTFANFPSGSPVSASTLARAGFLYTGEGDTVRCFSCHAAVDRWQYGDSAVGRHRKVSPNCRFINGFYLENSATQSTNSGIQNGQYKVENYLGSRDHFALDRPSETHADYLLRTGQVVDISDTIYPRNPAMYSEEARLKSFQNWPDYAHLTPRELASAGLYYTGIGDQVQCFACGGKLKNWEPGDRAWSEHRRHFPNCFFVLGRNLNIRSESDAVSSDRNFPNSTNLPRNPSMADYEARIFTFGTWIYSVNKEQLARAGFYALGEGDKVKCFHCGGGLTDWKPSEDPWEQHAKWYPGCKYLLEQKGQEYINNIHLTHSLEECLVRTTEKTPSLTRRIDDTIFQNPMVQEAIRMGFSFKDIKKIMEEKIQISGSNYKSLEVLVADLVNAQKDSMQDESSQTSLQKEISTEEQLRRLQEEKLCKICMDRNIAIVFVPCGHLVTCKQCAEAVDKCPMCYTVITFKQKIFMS
# test-name: Inhibition of XIAP BIR2-3 (124 to 356 residues) C202A/C213G mutant (unknown origin) in human THP1 cells using fluoresceinated caspase-3 substrate by caspase-3 rescue assay
Quick note: pEC50 means taking -log10 of the concentration in moles per liter.

Solved cases below.
• CN[C@@H](C)C(=O)N[C@H](C(=O)N1C[C@@H]2C[C@H]1C(=O)N[C@@H](Cc1ccc3ccccc3c1)C(=O)N[C@H](C(=O)O)Cc1ccc(cc1)OCc1cn(nn1)[C@H]1C[C@@H](C(=O)N[C@@H](Cc3ccc4ccccc4c3)C(=O)N[C@H](C(=O)O)Cc3ccc(cc3)OCc3cn2nn3)N(C(=O)[C@@H](NC(=O)[C@H](C)NC)C(C)C)C1)C(C)C = 7.23
• CN[C@@H](C)C(=O)N[C@H](C(=O)N1C[C@@H]2C[C@H]1C(=O)N[C@@H](Cc1ccccc1)C(=O)N[C@H](C(=O)O)Cc1ccc(cc1)OCc1cn2nn1)C(C)C = 5.85

query: // pEC50 lookup, key: CN[C@@H](C)C(=O)N[C@H](C(=O)N1C[C@@H]2C[C@H]1C(=O)N[C@@H](Cc1ccccc1)C(=O)N[C@H](C(=O)O)Cc1ccc(cc1)OCc1cn(nn1)[C@H]1C[C@@H](C(=O)N[C@@H](Cc3ccccc3)C(=O)N[C@H](C(=O)O)Cc3ccc(cc3)OCc3cn2nn3)N(C(=O)[C@@H](NC(=O)[C@H](C)NC)C(C)C)C1)C(C)C
result: 7.35

query: Repeat for the following compound: CN[C@@H](C)C(=O)N[C@H](C(=O)N1C[C@@H]2C[C@H]1C(=O)N[C@@H](Cc1ccccc1)C(=O)N[C@H](C(=O)O)Cc1ccc(cc1)NC(=O)CCc1cn2nn1)C(C)C
result: 5.17
